Sourced from ChEMBL document CHEMBL1145814

Provide the recorded pEC50 for the entries that follow.
test system: Human immunodeficiency virus 1; test: Effective concentration of compound required to protect human T-lymphocytic cells against the cytopathogenicity of HIV-1; type: functional, organism-based; conditions: Human immunodeficiency virus 1
Numbers only, as −log10 of the molar value.

The following compounds have reported results that may help.
NCCCCCCNC(=O)[C@@H]1NC(=O)C2NC(=O)C(NC(=O)C3NC(=O)C4NC(=O)C(Cc5ccc(c(Cl)c5)Oc5cc3cc(c5O)Oc3ccc(cc3Cl)C2O)NC(=O)C(N)c2ccc(O)c(c2)Oc2cc(O)cc4c2)c2ccc(O)c(c2)-c2c(O)cc(O)cc21 (stereo not given in full) = 4.82
CCCCOc1ccc(CNC2C(Oc3c4cc5cc3Oc3ccc(cc3Cl)C(O)C3NC(=O)C(NC(=O)C5NC(=O)C5NC(=O)C(Cc6ccc(cc6)O4)NC(=O)C(N(C)Cc4ccc(OCCCC)cc4)c4ccc(O)c(c4)Oc4cc(O)c(Cl)c5c4)c4ccc(O)c(c4)-c4c(O)cc(O)cc4[C@H](C(=O)NCCCN(C)C)NC3=O)OC(C(=O)NCCCN(C)C)C(O)C2O)cc1 (stereo not given in full) = 5.30
CN[C@@H](CC(C)C)C(=O)NC1C(=O)N[C@@H](CC(N)=O)C(=O)NC2C(=O)NC3C(=O)NC(C(=O)N[C@@H](C(=O)O)c4cc(O)cc(O)c4-c4cc3ccc4O)C(O)c3ccc(c(Cl)c3)Oc3cc2cc(c3O)Oc2ccc(cc2Cl)C1O (stereo not given in full) = 4.19

Incoming: Param readout = pEC50; param system = Human immunodeficiency virus 1; param query = NCCCCCCCCCCNC(=O)[C@@H]1NC(=O)C2NC(=O)C(NC(=O)C3NC(=O)C4NC(=O)C(Cc5ccc(c(Cl)c5)Oc5cc3cc(c5O)Oc3ccc(cc3Cl)C2O)NC(=O)C(N)c2ccc(O)c(c2)Oc2cc(O)cc4c2)c2ccc(O)c(c2)-c2c(O)cc(O)cc21 (stereo not given in full) ; response: value
Outgoing: 5.19
